Source of measurements: ChEMBL document CHEMBL1268866

Please respond with reported clearance for every item in the list.
experiment: Clearance in monkey; type: ADME, organism-based, Macaca mulatta; details: rhesus monkey, in vivo
Just the number in mL/min/kg, nothing appended.

The compound listed as `CN1CCc2nc(C(=O)N[C@@H]3C[C@@H](C(=O)N(C)C)CC[C@@H]3NC(=O)c3cc4cc(Cl)ccc4[nH]3)sc2C1` shows clearance equal to 12.4

clearance measured on `O=C([C@H](O)CS(=O)(=O)c1ccc2cc(Cl)ccc2c1)N1CCC(N2CCCNC2=O)CC1` = 11.8

The measured clearance associated with `COC[C@@H](NC(=O)c1ccc(Cl)s1)C(=O)Nc1ccc(N2CCOCC2=O)c(C)c1` reads 4.17

====

experiment: Drug excretion in dog urine; format: ADME, Canis lupus familiaris; conditions: read-out: Activity
Readout Kind: dose excreted
Please format your answer as a value with the unit trailing.

// dose excreted lookup, compound = O=C(NC[C@H]1CN(c2ccc(N3CCOCC3=O)cc2)C(=O)O1)c1ccc(Cl)s1 [RIVAROXABAN] , result: 52%

====

assay: Drug excretion in rat feces; assay type: ADME, tissue-based; conditions: faeces, read-out: Activity
Readout Kind: dose excreted (%)
Answer with a number only, understood to be in %.

Record `O=C(NC[C@H]1CN(c2ccc(N3CCOCC3=O)cc2)C(=O)O1)c1ccc(Cl)s1` . Reported dose excreted: 67

====

Would you mind telling me the reported Vd of each entry?
experiment: in vivo; settings: dog
Write it as a number; the unit L/kg goes unstated.

GET /value?item= `CN(C)Cc1nccn1-c1ccc(NC(=O)c2cc(C(F)(F)F)nn2-c2ccc3onc(N)c3c2)cc1` &field=Vd returns 4.5

Briefly, Vd measured for `O=C(NC[C@H]1CN(c2ccc(N3CCOCC3=O)cc2)C(=O)O1)c1ccc(Cl)s1` : 0.4

// sample `CO[C@@H]1C[C@H](C(=O)Nc2ccc(-n3ccccc3=O)cc2F)N(C(=O)Nc2ccc(Cl)cc2)C1` , its Vd was 0.87

Entry `COc1ccc(-n2nc(C(N)=O)c3c2C(=O)N(c2ccc(N4CCCCC4=O)cc2)CC3)cc1` , Vd reported as 0.2

====

assay: in vivo; conditions: dog
Decide by half-life: equal to or exceeding 0.9 h means MET, less means NOT MET.

I'd appreciate it if you could say whether `O=C(Nc1ccc(-n2ccccc2=O)cn1)[C@H]1C[C@](O)(c2ccc(F)cc2F)CN1C(=O)Nc1ccc(Cl)cc1` has half-life at least equal to 0.9 h.
MET

Quick check: does `O=C1CN(S(=O)(=O)c2cc3ccc(Cl)cc3s2)CCN1Cc1cc2c[nH]ccc-2n1` have half-life greater than or equal to 0.9 h?
NOT MET

Is the recorded value of half-life equal to or greater than 0.9 h for this compound? `O=C1CN(S(=O)(=O)/C=C/c2ccc(Cl)s2)CCN1Cc1cc2c[nH]ccc-2n1`
NOT MET

Reported half-life reaches at least 0.9 h for `CN(C)Cc1nccn1-c1ccc(NC(=O)c2cc(C(F)(F)F)nn2-c2ccc3onc(N)c3c2)cc1` ?
MET

Confirm if half-life reported for the compound `CN1CCC(N2CCN(C(=O)[C@H](NC(=O)c3ccc4cc[nH]c4c3)c3ccccc3)CC2)CC1` is 0.9 h or above.
MET

====

assay: Clearance in human; format: ADME, organism-based; conditions: in vivo
Readout Kind: clearance
Quick note: number first, unit second.

Noted for CC(=N)N1CC[C@H](Oc2ccc([C@H](Cc3ccc4ccc(C(=N)N)cc4c3)C(=O)O)cc2)C1 [DX-9065A] : its clearance reads 120 mL/min

====

experiment: Oral bioavailability in rat; assay type: ADME, organism-based; details: in vivo
The threshold is inclusive: bioavailability of exactly 40% counts as label 1; values below receive label 0.

Is bioavailability for `CN(C)Cc1ccc(C(=O)Nc2ccc(Cl)cc2C(=O)Nc2ccc(Cl)cn2)cc1` at or above 40%?
label 1

hey, is bioavailability for this one >= 40%? `Cc1cc2cc(N=C(NC#N)N[C@H]3CCCCN(CC(=O)N4CCCC4)C3=O)ccc2o1`
label 1

Please tell me: is the compound `CS(=O)(=O)c1ccccc1-c1ccc(NC(=O)[C@H]2C[C@@H](O)CN2C(=O)Nc2ccc(Cl)cc2)c(F)c1` at or over 40% in terms of bioavailability?
label 0

Would you say CN1CCC(N2CCN(C(=O)[C@H](NC(=O)c3ccc4cc[nH]c4c3)c3ccccc3)CC2)CC1 [LY-517717] shows bioavailability at minimum 40%?
label 0

For this compound, is measured bioavailability 40% or higher? `CN(C)Cc1nccn1-c1ccc(N2CC[C@H](NS(=O)(=O)/C=C/c3ccc(Cl)s3)C2=O)c(F)c1`
label 1

Is reported bioavailability greater than or equal to 40% here: O=C(NC[C@H]1CN(c2ccc(N3CCOCC3=O)cc2)C(=O)O1)c1ccc(Cl)s1 [RIVAROXABAN]
label 1

Test whether the compound `CCCCOC(=O)COc1cc(-c2ccccc2S(C)(=O)=O)ccc1CCNS(=O)(=O)c1cc(C(=N)NO)ccc1O` records bioavailability of 40% or higher.
label 0

Hi team, for `COC[C@@H](NC(=O)c1ccc(Cl)s1)C(=O)Nc1ccc(N2CCOCC2=O)c(C)c1` , is the recorded bioavailability at or above 40%?
label 1

Item `CO[C@@H]1C[C@H](C(=O)Nc2ccc(-c3ccccc3S(C)(=O)=O)cc2F)N(C(=O)Nc2ccc(Cl)cc2)C1` with bioavailability of 40% or above?
label 0

Is it the case that `CS(=O)(=O)c1cc(F)ccc1N1CCN(C(=O)[C@H](NC(=O)c2ccc3ccnc(N)c3c2)c2ccccc2)CC1` has bioavailability reaching or exceeding 40%?
label 0

Reported bioavailability reaches at least 40% for `CN(C)C(=N)c1ccc(NC(=O)c2cc(C(F)(F)F)nn2-c2cc3ccccc3cc2F)c(F)c1` ?
label 1

Hello, I need to know if `Cc1cc(C(=O)Nc2ccc(-n3ccnc3CN(C)C)cc2F)n(-c2ccc3cc(Cl)ccc3c2)n1` has measured bioavailability not below 40%. Thanks!
label 0

Say whether CO[C@@H]1C[C@H](C(=O)Nc2ccc(-n3ccccc3=O)cc2F)N(C(=O)Nc2ccc(Cl)cc2)C1 [ERIBAXABAN] shows bioavailability of 40% or more.
label 1

Is reported bioavailability greater than or equal to 40% here: `CN(C)Cc1ccccc1-c1ccc(C(=O)Nc2ccc(Cl)cc2C(=O)Nc2ccc(Cl)cn2)cc1`
label 1

====

assay: Volume of distribution at steady state in monkey; format: ADME, organism-based, Macaca mulatta; conditions: rhesus monkey, in vivo; read-out: Vdss
What Vd was measured for each of the following?
API: value field is a number in L/kg; no unit string.

// field: Vd; key: O=C([C@H](O)CS(=O)(=O)c1ccc2cc(Cl)ccc2c1)N1CCC(N2CCCNC2=O)CC1 [LETAXABAN] ; value = 0.579

Vd reported for this compound `CN1CCc2nc(C(=O)N[C@@H]3C[C@@H](C(=O)N(C)C)CC[C@@H]3NC(=O)c3cc4cc(Cl)ccc4[nH]3)sc2C1` : 1.49

====

test: Half life in human; assay type: ADME, organism-based; conditions: in vivo
Readout Kind: half-life

response.value for CC(=N)N1CC[C@H](Oc2ccc([C@H](Cc3ccc4ccc(C(=N)N)cc4c3)C(=O)O)cc2)C1 [DX-9065A] (field: half-life) = > 1200 min

====

Would you mind telling me the reported bioavailability of each entry?
test: Oral bioavailability in monkey; settings: in vivo
Report the value in % with no unit label.

Sample `Cc1ncc2n1C(=O)N(C1CCN(C(=O)CCS(=O)(=O)c3ccc4cc(Cl)ccc4c3)CC1)C2` ; bioavailability observed: 46

The molecule listed as `COC[C@@H](NC(=O)c1ccc(Cl)s1)C(=O)Nc1ccc(N2CCOCC2=O)c(C)c1` has a reported bioavailability of 80

For `CC(=N)N1CCC(Oc2ccc(N(Cc3ccc4ccc(C(=N)N)cc4c3)S(=O)(=O)CC(=O)O)cc2)CC1` the molecule record lists bioavailability as 20

# bioavailability (molecule: `O=C([C@H](O)CS(=O)(=O)c1ccc2cc(Cl)ccc2c1)N1CCC(N2CCCNC2=O)CC1` ) is 52.5

Reported bioavailability of `CN1CCc2nc(C(=O)N[C@@H]3C[C@@H](C(=O)N(C)C)CC[C@@H]3NC(=O)C(=O)Nc3ccc(Cl)cn3)sc2C1` : 50

====

assay: Half life in rat; type: ADME, organism-based; details: in vivo
Kindly supply the reported half-life values for the records listed here.
# output: bare number, implied unit h

Entry `Cc1cc(C(=O)Nc2ccc(-n3ccnc3CN(C)C)cc2F)n(-c2ccc3cc(Cl)ccc3c2)n1` , half-life reported as 7.2

O=C(NC[C@H]1CN(c2ccc(N3CCOCC3=O)cc2)C(=O)O1)c1ccc(Cl)s1 [RIVAROXABAN] yielded half-life of 1.2

half-life reported for this molecule `CN(C)Cc1nccn1-c1ccc(N2CC[C@H](NS(=O)(=O)/C=C/c3ccc(Cl)s3)C2=O)c(F)c1` : 1

Record CN1CCC(N2CCN(C(=O)[C@H](NC(=O)c3ccc4cc[nH]c4c3)c3ccccc3)CC2)CC1 [LY-517717] . Reported half-life: 7
